# Tested on: Streptococcus pneumoniae
# Assay Procedure: Antimicrobial activity against Streptococcus pneumoniae 10 expressing mefA after 20 hrs by agar dilution method
# Type: functional
# Experimental Conditions: Streptococcus pneumoniae, 20 h; read-out: MIC
Reported Metric: MIC (µg/mL)

Guide cases for MIC, answers given:
Form: Entry = CCOC(=O)[C@H]1[C@H](C)O[C@@H](O[C@H]2[C@H](N(C)C)[C@@H](O)[C@H](O[C@H]3[C@@H](CC=O)C[C@@H](C)[C@@H](OC(C)=O)CN(CCCCc4ccccc4)CCN(C)C(=O)C[C@@H](OC(=O)CC)[C@@H]3OC)O[C@@H]2C)C[C@@]1(C)OC(C)=O | System = Streptococcus pneumoniae | MIC = ____
1

Form: Entry = CCOC(=O)[C@H]1[C@H](C)O[C@@H](O[C@H]2[C@H](N(C)C)[C@@H](O)[C@H](O[C@H]3[C@@H](CC=O)C[C@@H](C)[C@@H](OC(C)=O)CN(CCCCc4ccccc4)C[C@@H](C)NC(=O)C[C@@H](OC(=O)CC)[C@@H]3OC)O[C@@H]2C)C[C@@]1(C)OC(C)=O | System = Streptococcus pneumoniae | MIC = ____
1

Form: Entry = CCOC(=O)[C@H]1[C@H](C)O[C@@H](O[C@H]2[C@H](N(C)C)[C@@H](O)[C@H](O[C@H]3[C@@H](CC=O)C[C@@H](C)[C@@H](O)CN(C)CCC[C@H](C/C=C/c4ccnc5ccccc45)OC(=O)C[C@@H](OC(=O)CC)[C@@H]3OC)O[C@@H]2C)C[C@@]1(C)O | System = Streptococcus pneumoniae | MIC = ____
0.06

Form: Entry = CCOC(=O)[C@H]1[C@H](C)O[C@@H](O[C@H]2[C@H](N(C)C)[C@@H](O)[C@H](O[C@H]3[C@@H](CC=O)C[C@@H](C)[C@@H](OC(C)=O)CN(CCCCc4ccccc4)C[C@@H](C)OC(=O)C[C@@H](OC(=O)CC)[C@@H]3OC)O[C@@H]2C)C[C@@]1(C)OC(C)=O | System = Streptococcus pneumoniae | MIC = ____
2

Form: Entry = CCOC(=O)[C@H]1[C@H](C)O[C@@H](O[C@H]2[C@H](N(C)C)[C@@H](O)[C@H](O[C@H]3[C@@H](CC=O)C[C@@H](C)[C@@H](O)CN(C)CCC[C@H](C/C=C/c4ccccc4)OC(=O)C[C@@H](OC(=O)CC)[C@@H]3OC)O[C@@H]2C)C[C@@]1(C)O | System = Streptococcus pneumoniae | MIC = ____
0.06

(a) CCOC(=O)[C@H]1[C@H](C)O[C@@H](O[C@H]2[C@H](N(C)C)[C@@H](O)[C@H](O[C@H]3[C@@H](CC=O)C[C@@H](C)[C@@H](O)CN(CCCCc4ccccc4)CCCOC(=O)C[C@@H](OC(=O)CC)[C@@H]3OC)O[C@@H]2C)C[C@@]1(C)OC(C)=O
(b) CCOC(=O)[C@H]1[C@H](C)O[C@@H](O[C@H]2[C@H](N(C)C)[C@@H](O)[C@H](O[C@H]3[C@@H](CC=O)C[C@@H](C)[C@@H](O)CN(CCCCc4ccccc4)CC[C@@H](C)OC(=O)C[C@@H](OC(=O)CC)[C@@H]3OC)O[C@@H]2C)C[C@@]1(C)OC(C)=O
Pick one: a or b . Which one has the lower reported MIC? // output: label of the selected item
b
